Just for reference, patent US20140050779A1 is where these values come from.

MEASURED METRIC: Kd (nM)
Express the result in nM but write the number alone.

# get_value(readout= Kd, system= hM2 (Homo sapiens)) for `C[C@@H]1OC(=O)[C@H]2C[C@H]3CCCC[C@@H]3[C@@H](/C=C/[C@H]3CCC[C@H](C)N3C)[C@@H]12`
4

###

- TARGET OR SYSTEM: hM5 (Homo sapiens)
- Sequence (P08912 1-532): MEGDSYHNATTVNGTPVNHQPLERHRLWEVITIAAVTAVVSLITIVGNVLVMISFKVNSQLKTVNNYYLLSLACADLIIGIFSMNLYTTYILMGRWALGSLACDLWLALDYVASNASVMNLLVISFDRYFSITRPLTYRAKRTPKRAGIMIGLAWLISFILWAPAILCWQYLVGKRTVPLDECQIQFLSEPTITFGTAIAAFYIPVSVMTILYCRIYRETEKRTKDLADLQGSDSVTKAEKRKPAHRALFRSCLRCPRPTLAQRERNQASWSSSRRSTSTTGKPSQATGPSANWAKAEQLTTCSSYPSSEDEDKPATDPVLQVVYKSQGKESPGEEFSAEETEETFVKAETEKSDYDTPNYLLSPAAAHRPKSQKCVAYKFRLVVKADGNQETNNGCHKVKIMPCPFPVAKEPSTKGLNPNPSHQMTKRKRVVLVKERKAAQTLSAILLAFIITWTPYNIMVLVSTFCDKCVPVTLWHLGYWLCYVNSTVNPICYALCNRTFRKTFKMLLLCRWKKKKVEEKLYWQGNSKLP
MEASURED METRIC: Kd (nM)
Give the quantity in nM, number only.

So what does the record say about Kd for C[C@@H]1OC(=O)[C@H]2C[C@H]3CCCC[C@@H]3[C@@H](/C=C/[C@H]3CCC[C@H](C)N3C)[C@@H]12 [himbacine] ?
296
